Could you please report measured self-cleavage for the items listed next?
B1: CPEB3 Ribozyme (parent)
chain: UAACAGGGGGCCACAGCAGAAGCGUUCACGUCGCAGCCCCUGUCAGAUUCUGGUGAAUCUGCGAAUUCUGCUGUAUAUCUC

- Variants of: B1
- assay.explanation: self-cleavage, relative activity (ratio to wild type); higher = more cleavage; in vitro, sequencing
One number for each entry.

Recorded self-cleavage, per entry:
{"columns": ["entry.sequence", "test.result"],
 "data": [
  ["UAACAGGGGGCCACAGCAGAAGCGUUCAUGUCGCAGCCCCUGUCAGAUUCUGGUGAAUCGGCGAAUUCUGCUGUAUAUCUC [C29U U60G]", 0.19],
  ["UAACAGGGGGCCACAGCAGAAGCGUUCACGUCGAAGCCCCGGUCAGAUUCUGGUGAAUCUGCGAAUUCUGCUGUAUAUCUC [C34A U41G]", 0.39],
  ["UAACAGGGGGCCACAGCAGAAGCGUUCACGUCGCAUCCCCUGUCAGAUUCUGGUGAAUCUUCGAAUUCUGCUGUAUAUCUC [G36U G61U]", 0.13],
  ["UAACAGGGGGCCACAGCAGAAGCGCUCACGUCGCAGCCCCUGUCAGAUUUUGGUGAAUCUGCGAAUUCUGCUGUAUAUCUC [U25C C50U]", 0.27],
  ["UAAUAGGGGGCCACAGUAGAAGCGUUCACGUCGCAGCCCCUGUCAGAUUCUGGUGAAUCUGCGAAUUCUGCUGUAUAUCUC [C4U C17U]", 1.05],
  ["UAACAGGGGGCCACAGCAGAAACGUUCACGUCGCAGCCCCUGUCAGAUUCUGGUGAAUCUGCGGAUUCUGCUGUAUAUCUC [G22A A64G]", 0.24],
  ["UAACAGGGGGCCACAGCAGAAGCGUUCAUGUCGCAGCCCCUGUCAGAUUCUGGUGAAUCUGCGAAUACUGCUGUAUAUCUC [C29U U67A]", 0.29],
  ["UAACAGGAGGCCACAGCAGAAGCGUUCACGUCGCAGCCCCUGUCAGAUUCCGGUGAAUCUGCGAAUUCUGCUGUAUAUCUC [G8A U51C]", 0.21]
]}

Hello, I would appreciate it if you could give self-cleavage for each entry below.
1. UAACAGGGGGCCACAUCAGAAGCGAUCACGUCGCAGCCCCUGUCAGAUUCUGGUGAAUCUGCGAAUUCUGCUGUAUAUCUC [G16U U25A]
2. UAACAGGGGGCCGCAGCAGAAGCGUUCACGUCGCAGCCCCUGUCAGAUUCUGGUGAAGCUGCGAAUUCUGCUGUAUAUCUC [A13G U58G]
3. UAACAGGGGACCACAGCAGAAGCGUUCACGUCGCGGCCCCUGUCAGAUUCUGGUGAAUCUGCGAAUUCUGCUGUAUAUCUC [G10A A35G]
4. UAACAGGGGGCCACAGCAGAAGCGUCCACGUCGCAGCCCCUGUCAGAUUCUGGUGAAUCUGGGAAUUCUGCUGUAUAUCUC [U26C C62G]
5. AAACAGGGGGCCACAGCAGAAGCGUUCACGUCGCAGCCCCUGUCAGACUCUGGUGAAUCUGCGAAUUCUGCUGUAUAUCUC [U1A U48C]

Data returned:
0.2
0.2
0.55
0.17
0.63

For each entry beneath this line, provide reported self-cleavage.
1. UAACAGGGGGCCACAGCAGAAGCGAUCACGUCGCAGCCCCUGUCAGAUUCUGGUGAAUCUGAGAAUUCUGCUGUAUAUCUC [U25A C62A]
2. UAACAGGGGGCCACAGAAGAAGCGUUCACGUCGCAGCCCCUGUCAGAUUCUGGUGAAUCUGCGGAUUCUGCUGUAUAUCUC [C17A A64G]
3. UAACAGGGGGCCACAGCAGAAGCGUUCACGUCGCAGCCCCUGUCGGAUUCUGGUGAUUCUGCGAAUUCUGCUGUAUAUCUC [A45G A57U]
4. UAACAGGGGGCCACAGCAGAAGCGUGCACGUCGCAGCCCCUGUCAGAUUCUGGUGAAUCUGCGAAUUCUGCUGUAUAUCAC [U26G U80A]

Data returned:
0.16
0.24
0.43
0.35
